test system: HeLa cells; experiment: Cytotoxicity assay (MTT assay) on HeLa cells; conditions: 0.1 μg/ml, 72 hrs
reported-endpoint: HeLa Cell Survival Rate (%)
Answer format: numeric, % implied, no suffix.

| molecule | reported-measurement |
| --- | --- |
| Cc1cc2c(C(C)C)c(O)c(O)c(C=O)c2c(O)c1-c1c(C)cc2c(C(C)C)c(O)c(O)c(C=O)c2c1O | 98 |
| COc1ccc2cc3[n+](cc2c1OC)CCc1cc2c(cc1-3)OCO2.[Cl-] [Compound H, berberine hydrochloride] | 98 |
| O=C(O)[C@H]1O[C@@H](Oc2cc3oc(-c4ccccc4)cc(=O)c3c(O)c2O)[C@H](O)[C@@H](O)[C@@H]1O | 97 |

Consider the record given below.
Lookup: Fill in the blank: the reported HeLa Cell Survival Rate of CC(C)[C@]12O[C@H]1[C@@H]1O[C@]13[C@]1(O[C@H]1C[C@H]1C4=C(CC[C@@]13C)C(=O)OC4)[C@@H]2O [Compound B, triptolide] is ____.
Found: 9

---

system: HeLa cells; test: Cytotoxicity assay (MTT assay) on HeLa cells; details: 1 μg/ml, 24 hrs
Property: HeLa Cell Survival Rate; scope: individual compounds
Kindly provide the numeric value in % only, without the unit symbol.

Here's what some known entries look like.
| compound | reported-measurement |
| --- | --- |
| CC(C)[C@]12O[C@H]1[C@@H]1O[C@]13[C@]1(O[C@H]1C[C@H]1C4=C(CC[C@@]13C)C(=O)OC4)[C@@H]2O [Compound B, triptolide] | 26 |
| COc1ccc2cc3[n+](cc2c1OC)CCc1cc2c(cc1-3)OCO2.[Cl-] [Compound H, berberine hydrochloride] | 87 |
| O=C(O)[C@H]1O[C@@H](Oc2cc3oc(-c4ccccc4)cc(=O)c3c(O)c2O)[C@H](O)[C@@H](O)[C@@H]1O | 103 |

Lookup: So what's the measured HeLa Cell Survival Rate for this one? Cc1cc2c(C(C)C)c(O)c(O)c(C=O)c2c(O)c1-c1c(C)cc2c(C(C)C)c(O)c(O)c(C=O)c2c1O
Found: 97

---

system: HeLa cells; assay: Cytotoxicity assay (MTT assay) on HeLa cells; settings: 10 μg/ml, 48 hrs
reported-endpoint: HeLa Cell Survival Rate

| molecule | HeLa Cell Survival Rate |
| --- | --- |
| O=C(O)[C@H]1O[C@@H](Oc2cc3oc(-c4ccccc4)cc(=O)c3c(O)c2O)[C@H](O)[C@@H](O)[C@@H]1O | 98% |
| COc1ccc2cc3[n+](cc2c1OC)CCc1cc2c(cc1-3)OCO2.[Cl-] [Compound H, berberine hydrochloride] | 71% |
| Cc1cc2c(C(C)C)c(O)c(O)c(C=O)c2c(O)c1-c1c(C)cc2c(C(C)C)c(O)c(O)c(C=O)c2c1O | 52% |

Now consider the entry below.
Lookup: Recorded HeLa Cell Survival Rate of O=c1c(O)c(-c2ccc(O)c(O)c2)oc2cc(O)cc(O)c12 , please.
Found: 51%

---

System: HeLa cells
Assay: Cytotoxicity assay (MTT assay) on HeLa cells
Conditions: 10 μg/ml, 24 hrs
Procedure: HeLa cell line was obtained from Dr. S. S. Shen (Biomedical Engineering Research Laboratories of Industrial Technology Research Institute of Taiwan). […] The cytotoxicity of the compounds set forth herein to HeLa cells and HUVEC cells were determined by the MTT assay. […] Each experiment was repeated for 3 times and the result shown in the tables herein were the mean value of the 3 repetitions. The O.D. of the vehicle control and experimental groups were recorded. […]
reported-endpoint: HeLa Cell Survival Rate (%)
Answer with a number only, understood to be in %.

| compound | reported-measurement |
| --- | --- |
| O=c1c(O)c(-c2ccc(O)c(O)c2)oc2cc(O)cc(O)c12 [Compound E, quercetin] | 83 |
| COc1ccc2cc3[n+](cc2c1OC)CCc1cc2c(cc1-3)OCO2.[Cl-] [Compound H, berberine hydrochloride] | 82 |
| Cc1cc2c(C(C)C)c(O)c(O)c(C=O)c2c(O)c1-c1c(C)cc2c(C(C)C)c(O)c(O)c(C=O)c2c1O [Compound F, gossypol-acetic acid] | 80 |

Lookup: # HeLa Cell Survival Rate lookup, item O=C(O)[C@H]1O[C@@H](Oc2cc3oc(-c4ccccc4)cc(=O)c3c(O)c2O)[C@H](O)[C@@H](O)[C@@H]1O [Compound G, baicalin]
Found: 109

Origin of the recorded values: patent US20090137661A1
